System tested: human MAP4K4 kinase domain (Homo sapiens, UniProt O95819)
Construct: 0.5 nM human MAP4K4 kinase domain (Invitrogen); purchased Invitrogen
Sequence (O95819 25-289 limits assumed): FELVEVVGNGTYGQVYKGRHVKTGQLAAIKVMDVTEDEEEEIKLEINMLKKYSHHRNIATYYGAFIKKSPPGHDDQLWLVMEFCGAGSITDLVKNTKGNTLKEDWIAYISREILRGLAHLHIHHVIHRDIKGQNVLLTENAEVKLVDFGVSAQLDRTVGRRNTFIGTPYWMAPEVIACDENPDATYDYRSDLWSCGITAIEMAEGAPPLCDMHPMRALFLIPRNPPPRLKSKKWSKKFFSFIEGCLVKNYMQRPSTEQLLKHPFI
Protocol notes: MAP4K4 kinase activity, CisBio HTRF Transcreener ADP assay
Type: biochemical
Assay context: IC50 category; ATP at Km (10 μM), 0.5 nM kinase domain, 2 h; read-out: MAP4K4
Recorded IC50 by entry

For orientation, consider the following solved cases.
# Compound, IC50
records = [
    ("COc1ccc(-c2cn(-c3ccccc3)c3c(=O)[nH]cnc23)cn1", "0.1 to 1 µM"),
    ("O=c1[nH]cnc2c1c(-c1ccc(OCC(O)CN3CCOCC3)cc1)cn2-c1cccnc1 (stereo not shown)", "≤ 0.1 µM"),
    ("CC(C)(O)CCOc1ccc(-c2cn(-c3cccnc3)c3ncn(COP(=O)(O)O)c(=O)c23)cc1", "> 1 µM"),
    ("COCCNc1ccc(-c2cn(-c3cccc(F)c3)c3nc[nH]c(=O)c23)cn1", "≤ 0.1 µM"),
    ("O=c1[nH]cnc2c1c(-c1cnn(CCCO)c1)cn2-c1ccccc1", "≤ 0.1 µM"),
    ("O=c1[nH]cnc2c(-c3ccc4cn[nH]c4c3)cn(-c3ccccc3)c12", "0.1 to 1 µM"),
]

Now look at this entry.
Data request: Fill blank: measured IC50 of the compound CC(C)(O)CCOc1ccc(-c2cn(-c3ccc(N)nc3)c3nc[nH]c(=O)c23)cc1 is ____.
Data returned: ≤ 0.1 µM
